Tested on: BT-474 Tam2
Assay: relative IC50 (midpoint of fitted logistic curve, plateau may be below 50% inhibition; CellTiter-Glo viability); higher = less potent
Conditions: 4-OH-tamoxifen in medium 1 µM; 72 h
reportedProperty: relative IC50

>>> reportedresult("N[C@@H](CSC(c1ccccc1)(c1ccccc1)c1ccccc1)C(=O)O")
"> 40 µM"
>>> reportedresult("O=NN(CCCl)C(=O)NCCCl")
"> 10 µM"
>>> reportedresult("CC(C)(C#N)c1cc(Cn2cncn2)cc(C(C)(C)C#N)c1")
"> 10 µM"
>>> reportedresult("CO[C@@H](C(=O)N1Cc2[nH]nc(NC(=O)c3ccc(N4CCN(C)CC4)cc3)c2C1)c1ccccc1")
"> 10 µM"
>>> reportedresult("S=P(N1CC1)(N1CC1)N1CC1")
"> 100 µM"
>>> reportedresult("COC(=O)C[C@](O)(CCCC(C)(C)O)C(=O)O[C@@H]1C(OC)=C[C@]23CCCN2CCc2cc4c(cc2[C@H]13)OCO4")
"1.78 µM"
>>> reportedresult("CCCCCOC(=O)Nc1nc(=O)n([C@@H]2O[C@H](C)[C@@H](O)[C@H]2O)cc1F")
"> 10 µM"
>>> reportedresult("C=C1C[C@@H]2[C@H](CC[C@]3(C)C(=O)CC[C@@H]23)[C@@]2(C)C=CC(=O)C=C12")
"> 10 µM"
>>> reportedresult("CS(=O)(=O)N1CCN(Cc2cc3nc(-c4cccc5[nH]ncc45)nc(N4CCOCC4)c3s2)CC1")
"0.182 µM"
>>> reportedresult("Nc1ccccc1NC(=O)c1ccc(CNC(=O)OCc2cccnc2)cc1")
"2.81 µM"
>>> reportedresult("C[C@]1(c2nc3c(C(N)=O)cccc3[nH]2)CCCN1")
"> 10 µM"
>>> reportedresult("O=C(O)C(=O)O.[NH-][C@@H]1CCCC[C@H]1[NH-].[Pt+2]")
"> 10 µM"
>>> reportedresult("Cn1nnc2c(C(N)=O)ncn2c1=O [Temozolomide]")
"> 10 µM"
>>> reportedresult("CCc1c2c(nc3ccc(OC(=O)N4CCC(N5CCCCC5)CC4)cc13)-c1cc3c(c(=O)n1C2)COC(=O)[C@]3(O)CC")
"> 10 µM"
>>> reportedresult("CC(C)(C)c1cnc(CSc2cnc(NC(=O)C3CCNCC3)s2)o1")
"0.42 µM"
>>> reportedresult("COc1cc2c(N3CCN(C(=O)Nc4ccc(OC(C)C)cc4)CC3)ncnc2cc1OCCCN1CCCCC1")
"> 1 µM"
>>> reportedresult("CCc1cncnc1N1CCN(Cc2nc3ccc(C(F)(F)F)cc3[nH]2)CC1")
"3.22 µM"
>>> reportedresult("COc1cc(CCc2cc(NC(=O)c3ccc(N4CC(C)NC(C)C4)cc3)n[nH]2)cc(OC)c1 (stereo not drawn)")
"> 1 µM"

###

Test system: BT-474
Assay: drug sensitivity score (DSS) (DSS (dimensionless)); higher = more sensitive; extreme values may be limits of the assay
Conditions: 4-OH-tamoxifen in medium 1 µM; 72 h
Structures can show the parent of a compound that is named as a salt.
In this section, each of the compounds is paired with its reported drug sensitivity score.
reportedProperty: drug sensitivity score

>>> reportedresult("COc1cc([C@@H]2c3cc4c(cc3[C@@H](O[C@@H]3O[C@@H]5CO[C@@H](C)O[C@H]5[C@H](O)[C@H]3O)[C@H]3COC(=O)[C@H]23)OCO4)cc(OC)c1O [Etoposide]")
1.71
>>> reportedresult("CN1CCN(c2ccc3nc(-c4c(N)c5c(F)cccc5[nH]c4=O)[nH]c3c2)CC1")
0
>>> reportedresult("CC/C(=C(\\c1ccccc1)c1ccc(OCCN(C)C)cc1)c1ccccc1 [Tamoxifen citrate]")
5.05
>>> reportedresult("CCC1=C[C@@H]2CN(C1)Cc1c([nH]c3ccccc13)[C@@](C(=O)OC)(c1cc3c(cc1OC)N(C)[C@H]1[C@@](O)(C(=O)OC)[C@H](OC(C)=O)[C@]4(CC)C=CCN5CC[C@]31[C@@H]54)C2 [Vinorelbine (tartrate)]")
23
>>> reportedresult("O=NN(CCCl)C(=O)NCCCl")
0
>>> reportedresult("CNC(=O)c1cc(Oc2ccc(NC(=O)Nc3ccc(Cl)c(C(F)(F)F)c3)c(F)c2)ccn1")
3.22
>>> reportedresult("CC(=O)OC[C@H]1O[C@@H]([S-])[C@H](OC(C)=O)[C@@H](OC(C)=O)[C@@H]1OC(C)=O.CCP(CC)CC.[Au+]")
4.22
>>> reportedresult("C[C@@H](Oc1cc(-c2cnn(C3CCNCC3)c2)cnc1N)c1c(Cl)ccc(F)c1Cl")
0
>>> reportedresult("O=C(CCCCCCC(=O)Nc1ccc([C@H]2O[C@@H](CSc3nc(-c4ccccc4)c(-c4ccccc4)o3)C[C@@H](c3ccc(CO)cc3)O2)cc1)NO")
4.44
>>> reportedresult("NC(=O)c1cccc2cn(-c3ccc([C@@H]4CCCNC4)cc3)nc12")
0
>>> reportedresult("COc1ccc(-c2cc3c(C)nc(N)nc3n([C@H]3CC[C@H](OCCO)CC3)c2=O)cn1")
24.3
>>> reportedresult("O=C(/C=C/c1cccnc1)NCCCCC1CCN(C(=O)c2ccccc2)CC1 [Daporinad (FK-866 HCl)]")
8.73
>>> reportedresult("Cc1[nH]c2ccccc2c1CCNCc1ccc(/C=C/C(=O)NO)cc1")
23.3
>>> reportedresult("CCS(=O)(=O)c1cccc(-c2cc(C(=O)NC3CCN(C)CC3)c(C)c3[nH]c4ncc(C)cc4c23)c1")
3.36
>>> reportedresult("c1ccc2c(CCNc3ccc(Nc4ccncc4)cc3)c[nH]c2c1")
3.42
